Let's look at some compounds and their measured MIC.
# System: E. coli
# method-notes: Gram negative MIC protocol (OD600, LB, 24 h)
# setup-conditions: Escherichia coli, read-out: MIC E. coli delta-TolC LB Media, E. coli delta-TolC, LB media, OD600
Structures can show the parent of a compound that is named as a salt.
measurement-label: MIC (µM)

> print(dat)
                                   compound  censoring.operator  observed.result
1  CN1CC2CCC1C(CNCc1ccccc1)C2 (stereo not shown) [B116]                   >              150
2  CC(NCc1ccccc1)C1CCCC1 (stereo not shown) [B35]                   >              150
3  CC(NCc1ccccc1)C1CCCCCC1 (stereo not shown) [B101]                   =               40
4       c1ccc(CNCCc2ccnc3ccccc23)cc1 [B119]                   >              150
5  COc1cc(CC(C)NCc2ccccc2)ccn1 (stereo not shown) [B85]                   >              150
6  c1ccc(CNCCC23CC4CC(CC(C4)C2)C3)cc1 [B104]                   =               91
7  CC(C)C[C@H](N)C(=O)NS(=O)(=O)Cc1ccccc1CNC(C)CC1CCCCC1 (stereo partly shown) [B428, dihydrochloride]                   =               55

----------
# System: E. coli
# method-notes: Gram negative MIC protocol (OD600, LB, 24 h)
# setup-conditions: Escherichia coli, read-out: MIC WT E. coli LB Media, wild-type E. coli, LB media, 24 h, OD600
Counter-ions that a name gives are not always drawn.
measurement-label: MIC

> print(dat)
                                    compound  observed.result
 1  CC(CC1CCCCC1)NCc1ccccc1OCC(=O)NCC1CC1 (centres unmarked) [B284]         > 150 µM
 2  O=C(O)C(CC1CCCCC1)NCc1ccccc1 (centres unmarked) [B204]         > 300 µM
 3  CCCNC(=O)COc1ccccc1CNC(C)CC1CCCCC1 (centres unmarked) [B242]         > 150 µM
 4  CC(C)c1ccccc1CNCCC1CCCCC1 [B227, hydrochloride]           170 µM
 5  CC(CC1CCCCC1)NCc1ccccc1OCc1ccccc1Br (centres unmarked) [B381]            55 µM
 6  NC(=O)c1ccccc1CNCCC1CCCCC1 [B259, trifluoroacetate]         > 150 µM
 7  CSCCCOc1ccccc1CNC(C)CC1CCCCC1 (centres unmarked) [B364]           150 µM
 8  C[Si](C)(C)c1ccccc1CNCCC1CCCCC1 [B341, hydrochloride]         > 150 µM
 9  c1ccc(OCC2CCOC2)c(CNCCC2CCCCC2)c1 (centres unmarked) [B330]         > 150 µM
10  CCSCCOc1ccccc1CNC(C)CC1CCCCC1 (centres unmarked) [B314]           150 µM
11      COC(=O)c1cccc(CNCCC2CCCCC2)c1 [B349]         > 150 µM
